- System: HL-60(TB) leukemia
- Test: NCI tumour cell line growth inhibition, 48 h
Measured attribute: GI50

[[record]]
compound = "CS(=O)(=O)[O-].CS(=O)(=O)[O-].NC1CCCCC1N.[Pt+4] (stereo not drawn)"
reading = "33.5 µM"

[[record]]
compound = "CNCCNc1nc2ccccc2c2c(=O)c3cc(F)ccc3sc12"
reading = "1.89 µM"

[[record]]
compound = "CCCCCCNC(=O)n1cc(F)c(=O)[nH]c1=O"
reading = "6.84 µM"


* * *

- Tested on: MDA-MB-231 breast
- Test: NCI tumour cell line growth inhibition, 48 h
Measured attribute: GI50

[[record]]
compound = "CCOC(=O)Nc1nc2cc(OCC)ccc2s1"
measured_attribute = "GI50"
reading = "> 100 µM"

[[record]]
compound = "COc1cc2c(c(OC)c1OC)-c1ccc(O)c(=O)cc1[C@@H](NC(C)=O)CC2"
measured_attribute = "GI50"
reading = "4.7 µM"

[[record]]
compound = "COc1cc(/C=C2\\CC3C4CC=C5C[C@@H](O)CC[C@]5(C)C4CC[C@]3(C)C2=O)ccc1OCCCn1ccnc1 (stereo partly drawn)"
measured_attribute = "GI50"
reading = "27.1 µM"


* * *

- System: HOP-92 NSCLC
- Test: NCI tumour cell line growth inhibition, 48 h; in the data active = GI50 below about 0.43 µM; inactive = the rest
Possible outcomes: true = active, false = inactive

[[record]]
compound = "C=C(C)[C@@H]1CC[C@]2(CO)CC[C@]3(C)[C@H](CC[C@@H]4[C@@](C)(CCCN)[C@H](C(=C)C)CC[C@]43C)[C@@H]12"
test_system = "HOP-92 NSCLC"
assigned_label = "false"

[[record]]
compound = "COc1cc(/C=C2\\CC3C4CC=C5C[C@@H](O)CC[C@]5(C)C4CC[C@]3(C)C2=O)ccc1OCCCn1ccnc1 (stereo partly drawn)"
test_system = "HOP-92 NSCLC"
assigned_label = "false"

[[record]]
compound = "COC(=O)c1ccc(CN2C(=O)C(Cl)=C(Nc3ccc(OC)c(Cl)c3)C2=O)cc1"
test_system = "HOP-92 NSCLC"
assigned_label = "false"

[[record]]
compound = "CC[C@@]12C=CCN3CC[C@]4(c5cc(NC(=O)COc6cc(OCC(=O)Nc7cc8c(cc7OC)N(C)[C@H]7[C@@](O)(C(=O)OC)[C@H](OC(C)=O)[C@]9(CC)C=CCN%10CC[C@]87[C@@H]%109)cc7oc(-c8ccccc8)cc(=O)c67)c(OC)cc5N(C)[C@@H]4[C@](O)(C(=O)OC)[C@H]1OC(C)=O)[C@H]32"
test_system = "HOP-92 NSCLC"
assigned_label = "false"

[[record]]
compound = "COc1nc(C)cc2c(=O)n(-c3ccccc3)n(CC(O)CN3CCN(c4ccc(Cl)cc4)CC3)c(=O)c12 (stereo not drawn)"
test_system = "HOP-92 NSCLC"
assigned_label = "false"

[[record]]
compound = "COc1ccc([C@@H](O)c2cc(-c3ncnc4cc(N5CCOCC5)ccc34)c(F)cc2Cl)nn1"
test_system = "HOP-92 NSCLC"
assigned_label = "true"

[[record]]
compound = "CC(C)(C)n1cc(-c2ccnc(NCCCNS(=O)(=O)c3ccc(Br)cc3)c2)c(-c2cccc(O)c2)n1"
test_system = "HOP-92 NSCLC"
assigned_label = "false"

[[record]]
compound = "CCC[CH2][Sn]1([CH2]CCC)[O]C(=O)c2ccc(N)cc2[O]1"
test_system = "HOP-92 NSCLC"
assigned_label = "true"


* * *

Entries and their TGI values follow.
- Tested on: NCI-H460 lung
- Test: NCI tumour cell line growth inhibition, 48 h
Measured attribute: TGI

[[record]]
molecule = "COC(=O)C1Cc2c([nH]c3ccccc23)C(c2ccccc2O)N1Cc1ccccc1 (stereo unspecified)"
measured_attribute = "TGI"
reading = "> 46.4 µM"

[[record]]
molecule = "Cn1c2ccc(C3=NCCN3)cc2c2cc(C3=NCCN3)ccc21"
measured_attribute = "TGI"
reading = "25.9 µM"

[[record]]
molecule = "Cc1ccc(/C=N\\NC(=O)c2ccncc2)s1"
measured_attribute = "TGI"
reading = "> 100 µM"

[[record]]
molecule = "C=CCOC1(CC=C)C(=O)OC2C(O)COC21O (stereo unspecified)"
measured_attribute = "TGI"
reading = "> 100 µM"

[[record]]
molecule = "ClCc1ccc(C2OCCO2)cc1"
measured_attribute = "TGI"
reading = "39.4 µM"

[[record]]
molecule = "CC(=O)c1cc(-c2ccccc2N)n(-c2ccc3c(c2)OCO3)c1C"
measured_attribute = "TGI"
reading = "13.2 µM"


* * *

- Test system: UO-31 renal
- Test: NCI tumour cell line growth inhibition, 48 h
*1 amine or outer side, *2 acyl side, *3 side chain or, on linkers, in order; H or OH if unused. Where a SMILES comes first, the peptide text is derived from it. Bridges are numbered along the chain shown (N, C = ends). [ ]: non-standard residue; d: D form. ξ: configuration not given here. X35 = CC[C@H](C)[C@@H](N[*:1])[C@@H](O)CC(=O)O[C@H](C(=O)[C@H](C)C(=O)[*:2])C(C)C; NMeY = CN[C@@H](Cc1ccc(O)cc1)C(=O)O; dNMeL = CN[C@H](CC(C)C)C(=O)O; ξΔPro = O=C(O)C1C=CCN1
Measured attribute: TGI

[[record]]
compound = "Cc1cc(=O)oc2cc(OC(=O)N(CCCl)CCCl)ccc12"
reading = "> 100 µM"

[[record]]
compound = "CSc1nsc(S/C=C\\C(=O)c2ccc(C)cc2)n1"
reading = "> 62.8 µM"

[[record]]
compound = "CC[C@H](C)[C@H]1NC(=O)[C@@H](NC(=O)[C@@H](CC(C)C)N(C)C(=O)C2C=CCN2)[C@@H](C)OC(=O)[C@H](Cc2ccc(OC)cc2)N(C)C(=O)[C@@H]2CCCN2C(=O)[C@H](CC(C)C)NC(=O)[C@@H](C)C(=O)[C@H](C(C)C)OC(=O)C[C@@H]1O (stereo partly specified) (H-[ξΔPro][dNMeL]T[X35]LP[NMeY](Me); ester 3-C)"
reading = "0.303 µM"

[[record]]
compound = "COC(=O)/C=c1/c2ccccc2n2c1c1ccccc1[n+]2C"
reading = "20.4 µM"

[[record]]
compound = "COC(=O)[C@@]1(C)CCC[C@]2(C(=O)O)C3Cc4occc4[C@H](C)[C@@H]3CCC21 (stereo partly specified)"
reading = "> 100 µM"

[[record]]
compound = "Clc1nc2c(C#Cc3ccccc3)ncnc2n1C1CCCCO1 (stereo unspecified)"
reading = "25.1 µM"

[[record]]
compound = "C=C(CCOC)CCC1CCCCC(=C)[C@H]1O (stereo partly specified)"
reading = "> 100 µM"

[[record]]
compound = "NC1c2c(Cl)sc(Cl)c2C(=O)C1O (stereo unspecified)"
reading = "> 100 µM"

[[record]]
compound = "CN1c2ccccc2S(=O)(=O)n2c(CCc3ccccc3)nnc21"
reading = "> 100 µM"

[[record]]
compound = "COc1cc2c(cc1OC)C(=O)/C(=C/c1ccc(O)cc1)CC2"
reading = "4.32 µM"

[[record]]
compound = "Cc1nn(CNc2ccccc2C(F)(F)F)c(=S)n1/N=C/c1ccc(F)cc1"
reading = "> 100 µM"


* * *

- System: U251 CNS
- Test: NCI tumour cell line growth inhibition, 48 h
Measured attribute: TGI (µM)

[[record]]
compound = "O=c1oc2cccnc2n1CCCCN1CCN(c2ccccc2)CC1"
measurement_unit = "µM"
result_qualifier = ">"
reading = 100

[[record]]
compound = "Cc1cn(CCOCCOC(=O)NC(CCCNC(N)=O)C(=O)O)c(=O)[nH]c1=O (configuration not stated)"
measurement_unit = "µM"
result_qualifier = ">"
reading = 100

[[record]]
compound = "CCCCN(CCCC)CCc1c(C)cc(C)c(CCN(CCCC)CCCC)c1O"
measurement_unit = "µM"
result_qualifier = "="
reading = 42.6

[[record]]
compound = "NC(=S)NNC(=S)NC(=O)c1ccco1"
measurement_unit = "µM"
result_qualifier = ">"
reading = 10

[[record]]
compound = "COc1ccccc1NC(=S)N/N=C/c1ccccn1"
measurement_unit = "µM"
result_qualifier = "="
reading = 12.5

[[record]]
compound = "O=C(O)CCSC1=NCCN1"
measurement_unit = "µM"
result_qualifier = ">"
reading = 100

[[record]]
compound = "CCOC(=O)Cc1csc(N=Nc2c(O)[nH]c3ccccc23)n1"
measurement_unit = "µM"
result_qualifier = ">"
reading = 100

[[record]]
compound = "Cn1ccc2c(c1=O)C(=O)OC2(C)C"
measurement_unit = "µM"
result_qualifier = ">"
reading = 100

[[record]]
compound = "COC(=O)C(CC(=O)c1c[nH]c2ccccc12)c1c[nH]c2ccccc12 (configuration not stated)"
measurement_unit = "µM"
result_qualifier = "="
reading = 50.4

[[record]]
compound = "CC(/C=C/NNC1=NC(c2ccccc2)C(c2ccccc2)=NN1)Sc1ccccc1N (configuration not stated)"
measurement_unit = "µM"
result_qualifier = "="
reading = 8.39

[[record]]
compound = "CC(C(=O)O)c1ccc(-c2ccccc2)c(F)c1 (configuration not stated)"
measurement_unit = "µM"
result_qualifier = ">"
reading = 100

[[record]]
compound = "O=NN1CCCS1(=O)=O"
measurement_unit = "µM"
result_qualifier = ">"
reading = 100

[[record]]
compound = "CC12CC=CCC1CCC1C2CCC2(C)C(c3ccc(=O)oc3)CCC12O (configuration not stated)"
measurement_unit = "µM"
result_qualifier = "="
reading = 0.337

[[record]]
compound = "COc1cc(C2c3cc4c(cc3[C@@H](N(C)C)[C@H]3COC(=O)C23)OCO4)cc(OC)c1O (some centres not stated)"
measurement_unit = "µM"
result_qualifier = ">"
reading = 100

[[record]]
compound = "CC(=O)NC(=O)NC1=NCCC(=O)N1CCc1c[nH]c2ccccc12"
measurement_unit = "µM"
result_qualifier = ">"
reading = 100

[[record]]
compound = "COc1cc2c(c(OC)c1)C(=O)O[C@H](C)CCCC/C=C/C2"
measurement_unit = "µM"
result_qualifier = "="
reading = 30.5

[[record]]
compound = "Cn1c2ccc(C3=NCCN3)cc2c2cc(C3=NCCN3)ccc21"
measurement_unit = "µM"
result_qualifier = ">"
reading = 100

[[record]]
compound = "CC1=NOC(=O)C1N=Nc1ccc(Br)c(C)c1 (configuration not stated)"
measurement_unit = "µM"
result_qualifier = "="
reading = 37.8

[[record]]
compound = "COc1cc(C)cc2c(-c3c(O)cc(O)c4c3C[C@H](C)N[C@H]4C)cc(-c3cc(-c4c(O)cc(O)c5c4C[C@H](C)N[C@H]5C)c4cc(C)cc(OC)c4c3O)c(O)c12"
measurement_unit = "µM"
result_qualifier = ">"
reading = 100

[[record]]
compound = "COC(=O)/C=c1/c2ccccc2n2c1c1ccccc1[n+]2C"
measurement_unit = "µM"
result_qualifier = "="
reading = 19.4

[[record]]
compound = "O=C(Nc1ccc(Br)cc1)Nc1nn(C(=O)Nc2ccc(Br)cc2)c2ccccc12"
measurement_unit = "µM"
result_qualifier = "="
reading = 43.6

[[record]]
compound = "O=[N+]([O-])c1ccc2nc(/C=C(\\O)c3ccc(Cl)cc3)c(/C=C(\\O)c3ccc(Cl)cc3)nc2c1"
measurement_unit = "µM"
result_qualifier = ">"
reading = 100

[[record]]
compound = "O=C1/C(=C/c2ccc(O)cc2)CCC1CNc1ccccc1 (configuration not stated)"
measurement_unit = "µM"
result_qualifier = "="
reading = 30.3

[[record]]
compound = "C/C=C(/C)c1cnc(CC(C)C)c(=O)[nH]1"
measurement_unit = "µM"
result_qualifier = ">"
reading = 100

[[record]]
compound = "O=[N+]([O-])c1ccc2c(c1)n1c(N3CCCC3)[n+]3ccccc3c1c1c3cccc[n+]3c(N3CCCC3)n21"
measurement_unit = "µM"
result_qualifier = ">"
reading = 100

[[record]]
compound = "COc1ccc(NC(=O)n2nc(/C=C\\c3ccc(O)c(OC)c3)cc2/C=C\\c2ccc(O)c(OC)c2)cc1"
measurement_unit = "µM"
result_qualifier = "="
reading = 20.9

[[record]]
compound = "COC(=O)c1ccc2c(c1)C(=O)c1c-2n(CCCN)c(=O)c2cc(OC)c(OC)cc12"
measurement_unit = "µM"
result_qualifier = "="
reading = 32.1

[[record]]
compound = "CS(=O)(=O)NNS(=O)(=O)c1ccc(Cl)cc1"
measurement_unit = "µM"
result_qualifier = ">"
reading = 100

[[record]]
compound = "COc1cc2c(cc1OC)C(=O)/C(=C/c1ccc(O)cc1)CC2"
measurement_unit = "µM"
result_qualifier = ">"
reading = 10

[[record]]
compound = "O=C1c2ccccc2C(=O)c2nn(N=P(CP(=Nn3nc4c(n3)C(=O)c3ccccc3C4=O)(c3ccccc3)c3ccccc3)(c3ccccc3)c3ccccc3)nc21"
measurement_unit = "µM"
result_qualifier = ">"
reading = 100

[[record]]
compound = "N#Cc1c(C[n+]2ccccc2)c2ccccc2oc1=O"
measurement_unit = "µM"
result_qualifier = ">"
reading = 100

[[record]]
compound = "COc1cc(/C=C/c2ccc(OC)c(OC)c2OC)cc(OC)c1OC"
measurement_unit = "µM"
result_qualifier = "="
reading = 36.2

[[record]]
compound = "CCCCCCCCCCCCCC(=O)NCC(OCC)OCC"
measurement_unit = "µM"
result_qualifier = ">"
reading = 100

[[record]]
compound = "ClCc1ccc(C2OCCO2)cc1"
measurement_unit = "µM"
result_qualifier = "="
reading = 17.2

[[record]]
compound = "CC1CN=C(c2ccc(CN3CCC(C4CCN(Cc5ccc(C6=NCC(C)N6)cc5)CC4)CC3)cc2)N1 (configuration not stated)"
measurement_unit = "µM"
result_qualifier = "="
reading = 29.6

[[record]]
compound = "COc1ccc2c(c1)C(=O)C1CCC(=O)N1C2c1ccc2c(c1)OCO2 (configuration not stated)"
measurement_unit = "µM"
result_qualifier = "="
reading = 31.5

[[record]]
compound = "CNCCNc1nc2ccccc2c2c(=O)c3cc(OC)ccc3sc12"
measurement_unit = "µM"
result_qualifier = "="
reading = 2.92

[[record]]
compound = "COC(=O)c1cc(-c2ccc(OC)cc2)[nH]c1N/N=C/c1c(Cl)cccc1Cl"
measurement_unit = "µM"
result_qualifier = "="
reading = 1.82

[[record]]
compound = "C[C@]12CC[C@@H](OC(=O)N(CCCl)N=O)C[C@@H]1CC[C@@H]1[C@@H]2CC[C@]2(C)C(=O)CC[C@@H]12"
measurement_unit = "µM"
result_qualifier = "="
reading = 15.7

[[record]]
compound = "CC1(O)CCC2(C)C(=O)C1(C)CCC21OCCO1 (configuration not stated)"
measurement_unit = "µM"
result_qualifier = ">"
reading = 100

[[record]]
compound = "COC(=O)c1cc(C)ccc1/C=C1\\Cc2c(C)cc(C)cc2C1=O"
measurement_unit = "µM"
result_qualifier = "="
reading = 42.9

[[record]]
compound = "COc1cc(/C=C2\\CC3C4CC=C5C[C@@H](O)CC[C@]5(C)C4CC[C@]3(C)C2=O)ccc1OCCCn1ccnc1 (some centres not stated)"
measurement_unit = "µM"
result_qualifier = "="
reading = 32.8

